As shown below, each of these molecules has a reported solubility thermodynamic at 3 min value.
experiment summary: pH-solubility of polypeptide variants
Format: physicochemical
assay context: pH 5.5; a: precipitate, supernatant assayed; read-out: pH-solubility, Concentration
Description: Solubility study of variants was performed by adding variants powders into solvent in concentration of 5 mg/ml and then vortexing for 3 min. Observe the appearance of solutions in 5 min. Add more powder (˜5 mg/ml each time) and repeat vortex and observe until precipitation or gelation occurs.
Square brackets hold non-standard residues; d marks the D form. Peptide text beside a SMILES is read from it.
// units = µg/mL; emit number, no label

{"molecule": "CC(=O)N[C@H](C)C(=O)N[C@H](C)C(=O)N[C@@H](CCC(=O)O)C(=O)NCC(=O)N[C@@H](CCCCN)C(=O)N[C@@H](C)C(=O)N[C@@H](CO)C(=O)N[C@@H](Cc1ccccc1)C(=O)N[C@H](C(=O)N[C@H](C(=O)N[C@@H](Cc1ccccc1)C(=O)N[C@H](C(=O)N[C@H](C(=O)N[C@H](C(=O)N[C@@H](CCCCN)C(=O)NCC(=O)N[C@@H](CO)C(=O)N[C@H](C)C(=O)N[C@H](C)C(N)=O)[C@@H](C)O)C(C)C)[C@@H](C)O)[C@@H](C)O)[C@@H](C)O [SEQ ID NO.8] (Ac-[dA][dA]EGKASFTTFTVTKGS[dA][dA]-NH2)", "units label": "µg/mL", "solubility thermodynamic at 3 min": 23600}
{"molecule": "CC(C)[C@H](NC(=O)[C@@H](NC(=O)[C@H](Cc1ccccc1)NC(=O)[C@@H](NC(=O)[C@@H](NC(=O)[C@H](Cc1ccccc1)NC(=O)[C@H](CO)NC(=O)[C@H](C)NC(=O)[C@@H](N)CCCCN)[C@@H](C)O)[C@@H](C)O)[C@@H](C)O)C(=O)N[C@H](C(=O)N[C@@H](CCCCN)C(=O)NCC(=O)N[C@@H](CO)C(=O)O)[C@@H](C)O [SEQ ID NO.4] (H-KASFTTFTVTKGS-OH)", "units label": "µg/mL", "solubility thermodynamic at 3 min": 4000}

Let's switch to this molecule now.
Check the records and state solubility thermodynamic at 3 min for CC(C)[C@H](N)C(=O)N[C@H](C(=O)N[C@@H](CCCCN)C(=O)N[C@@H](Cc1ccc(O)cc1)C(=O)N[C@@H](Cc1c[nH]c2ccccc12)C(=O)N[C@@H](Cc1ccccc1)C(=O)N[C@@H](Cc1ccc(O)cc1)C(=O)N[C@@H](CCCNC(=N)N)C(N)=O)[C@@H](C)O [SEQ ID NO.22] (H-VTKYWFYR-NH2) 2980
